As shown below, each of these compounds has a reported Neurogenesis # BrdU+ Cells (X10E06)/mm3 Dentate Gyrus value.
# Test system: hippocampal neurogenesis (Dentate Gyrus)
# ASSAY NAME: in vivo neurogenesis assay (BrdU+ cells in dentate gyrus)
# Set-up: species or system mice
# RUN CONDITIONS: living mice; vehicle (DMSO) 7.3

COMPOUND: CNCCC(Oc1ccc(C(F)(F)F)cc1)c1ccccc1 (centres unmarked) [S122, Prozac, reference compound]
RESULT: 10.0 (X10E06)/mm3

COMPOUND: COc1ccc2[nH]c3ccc(Br)cc3c2c1
RESULT: 15.0 (X10E06)/mm3

COMPOUND: COc1ccc(SCC(O)Cn2c3ccc(Br)cc3c3cc(Br)ccc32)cc1 (centres unmarked)
RESULT: 14.1 (X10E06)/mm3

COMPOUND: OC(COc1ccccc1)Cn1c2ccc(Br)cc2c2cccnc21 (centres unmarked)
RESULT: 8.1 (X10E06)/mm3

Field Neurogenesis # BrdU+ Cells (X10E06)/mm3 Dentate Gyrus (entry COc1cccc(NCC(O)Cn2c3ccc(Br)cc3c3cc(N=[N+]=[N-])ccc32)c1 (centres unmarked) ) reads 10.1 (X10E06)/mm3
